Assay: In vitro serum stability
Assay type: in vitro ADME, human
Conditions: human male pooled serum, 570 μl spiked with 30 μl peptide stock (0.05 μg/μl in H2O); quenched with 0.1 M ammonium acetate pH 3, SPE; LC-MS MRM; one phase decay; at least three replicates; read-out: Half-life in serum (T1/2) (converted)
Where no end group is shown, it is not given here.

# substance, half-life at 2.5 µg/mL
rows = [
    ("RAAPYGVRLSGREFIRAVIFTSR-NH2 [Analog 8, reference compound]", "4 min"),
]

The origin of these recorded values is paper PMC7039932.
